Tested on: NCI-H460 lung
Test: NCI tumour cell line growth inhibition, 48 h
Reported TGI by item:
Value kind: TGI

| Molecule | Reported measurement |
| --- | --- |
| O=C1c2ccn(CCCCN3CCOCC3)c2C(=O)c2c1c(O)c1ccccc1c2O | 28.4 µM |
| Cc1ccc(OP2(=O)Oc3ccc4ccccc4c3CN2c2ccc(Cl)cc2)cc1C (stereo not given) | > 100 µM |
| COc1ccc(-c2nc3ncccn3c2-c2ccc(S(C)=O)cc2)cc1 (stereo not given) | > 100 µM |
| On1c(-c2ccccc2)c(-c2c(-c3ccccc3)n(O)c3ccccc23)c2ccccc21 | 49.4 µM |
| O=S(=O)(c1cccc(C(F)(F)F)c1)N1c2ccccc2-n2cccc2C1c1cccnc1 (stereo not given) | > 51.1 µM |
| CCOC(=O)C1(Cc2ccc(C)cc2)Cc2ccc(C)cc2C1=O (stereo not given) | 82.4 µM |
| CC1(C)CCC(S(=O)(=O)c2ccc3c(c2)/C(=N\O)c2cc(S(=O)(=O)N4CCC(O)(c5cccc(C(F)(F)F)c5)CC4)ccc2-3)CC1 | 0.0613 µM |
| N#Cc1c(-c2ccco2)c2c(n(C3OC(CO)C(O)C(O)C3O)c1=S)CCCC2 (stereo not given) | > 100 µM |
| COc1cc(OC)c(-c2cc(=O)c3c(OC)c(OC)c(OC)c(OC)c3o2)cc1OC | > 100 µM |
| COc1ccc2c(c1)Oc1nc(N)c(C#N)c(N)c1C2Sc1ccc(SC)cc1 (stereo not given) | 4.05 µM |
| COc1ccc(-c2cc(C(=O)Nc3cccc(C(F)(F)F)c3)[nH]c(=S)n2)cc1 | > 100 µM |
| COc1ccc(C2SCC(=O)N2N=C2NC(=O)CC(=O)N2)cc1 (stereo not given) | > 100 µM |
| CN(NC(=O)c1ccco1)C1=NCCCCN1 | > 100 µM |
| COc1ccc(-n2c(CCCC(=O)O)nc3c2C(=O)c2ccccc2C3=O)cc1 | > 100 µM |
| O=C(NC1CCCCC1)c1c(O)[nH]c(=S)[nH]c1=O | > 100 µM |
| Cc1cc(N(CCCl)CCCl)ccc1C=Nc1cccnc1 | > 47.7 µM |
| C[C@]12CC[C@H](O)CC1=CC[C@@H]1[C@@H]2CC[C@]2(C)C(=O)/C(=C/c3cccc(OCCCn4ccnc4)c3)C[C@@H]12 | 43.2 µM |
| CC(C)C1CN1CC(O)Cn1ccnc1[N+](=O)[O-] (stereo not given) | > 100 µM |
| COc1cc2c(-c3nc4cc(Cl)c(F)cc4s3)cc(=O)oc2c(C)c1OC | 4.61 µM |
| COc1ccc2c(c1O)-c1c(OC)c(OC)cc3c1[C@H](C2)[N+](C)(C)CC3 | > 100 µM |
